Data provenance: patent US8871783B2

- assay.target: recombinant human DPPI (Homo sapiens (Human), UniProt P53634)
- Sequence (P53634 231-394): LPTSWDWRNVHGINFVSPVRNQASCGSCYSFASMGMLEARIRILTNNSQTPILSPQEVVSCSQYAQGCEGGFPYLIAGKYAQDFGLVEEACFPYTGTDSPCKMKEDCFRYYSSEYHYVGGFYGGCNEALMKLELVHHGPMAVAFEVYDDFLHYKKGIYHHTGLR
- Sequence (P53634 395-463): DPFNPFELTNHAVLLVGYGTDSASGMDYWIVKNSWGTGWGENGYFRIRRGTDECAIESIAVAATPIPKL
- Sequence (P53634 25-134): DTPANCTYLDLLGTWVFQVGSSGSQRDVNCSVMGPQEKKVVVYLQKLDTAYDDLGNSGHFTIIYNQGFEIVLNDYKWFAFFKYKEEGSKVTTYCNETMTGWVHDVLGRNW
- test.summary: Inhibition of Human DPPI (Cathepsin C)
- test.conditions: substrate Gly-Arg-AMC 50 μM, MES buffer pH 6.0, fluorescence
- Source text: Inhibition of Human DPPI (Cathepsin C) Materials: Microtiterplates (Optiplate-384 F) were purchased from PerkinElmer (Prod. No. 6007270). The substrate Gly-Arg-AMC was from Biotrend (Prod.-No. 808756 Custom peptide). Bovine serum albumin (BSA; Prod. No. A3059) and Dithiothreitol (DTT; Prod. No D0632) were from Sigma. TagZyme buffer was from Riedel-de-Haen (Prod.-No. 04269), NaCl was from Merck (Prod.-No. 1.06404.1000) and morpholinoethane sulfonic acid (MES), was from Serva (Prod.-No. 29834). […]
Catalogue of molecules with associated Ki

{"molecule": "CN1C(=O)Cc2ccc(-c3cnc(CC(C#N)NC(=O)[C@H]4N[C@@H]5CC[C@H]4C5)s3)cc21 (stereo partly shown)", "Ki / nM": 14.9}
{"molecule": "CN1C(=O)Cc2ccc(-c3csc(CC(C#N)NC(=O)[C@H]4N[C@@H]5CC[C@H]4C5)c3)cc21 (stereo partly shown)", "Ki / nM": 41.9}
{"molecule": "N#CC(Cc1cc2cc(Br)ccc2o1)NC(=O)[C@H]1N[C@@H]2CC[C@H]1C2 (stereo partly shown)", "Ki / nM": 64.1}
{"molecule": "CC(=O)c1ccc(-c2ccc(C[C@@H](C#N)NC(=O)[C@H]3N[C@@H]4CC[C@H]3C4)s2)s1", "Ki / nM": 13.4}
